Record form. Attribute: solubility (mole fraction). Fill in for each entry.
Conditions: in toluene, 288.15 K
// no unit string in output, number only

Query: Fill blank: measured solubility (mole fraction) of the compound COc1c(NS(=O)(=O)c2ccc(F)cc2)cc(-c2ccc3nccc(N4CCOCC4)c3c2)cc1C(N)=O is ____.
Result: 5.82e-06

Query: Would you kindly share the measured solubility (mole fraction) for COc1c(NS(=O)(=O)c2ccc(F)cc2)cc(-c2ccc3ncnc(N4CCOCC4)c3c2)cc1C(N)=O ?
Result: 1.05e-05

Query: Given the compound COc1c(NS(=O)(=O)c2ccc(C)cc2)cc(-c2ccc3ncnc(N4CCOCC4)c3c2)cc1C(N)=O , what is its reported solubility (mole fraction)?
Result: 2.41e-05
